Target: Fibroblast growth factor receptor 1 (Homo sapiens)
Assay: Inhibition of human FGFR1 using myelin basic protein as substrate at 1 uM measured after 20 mins at 30 degC by liquid scintillation counting method in presence of [gamma-32P]-ATP

{"columns": ["compound", "inhibition"],
 "data": [
  ["O=c1c2cc3c(cc2ncn1Cc1ccc(-c2ccccc2)cc1)OCCO3", "10%"],
  ["COc1cc2ncn(Cc3cccc(Br)c3)c(=O)c2cc1OC", "11%"],
  ["O=C(Cn1cnc2cc3c(cc2c1=O)OCCO3)c1cccc(Br)c1", "18%"],
  ["O=c1c2cc3c(cc2ncn1Cc1cccc(Br)c1)OCCO3", "7%"],
  ["O=C(Cn1cnc2cc3c(cc2c1=O)OCCO3)c1ccc(Br)cc1", "18%"],
  ["O=c1c2cc3c(cc2ncn1CC(O)c1cccc(Cl)c1)OCCO3 (stereo unspecified)", "5%"],
  ["COc1cc2ncn(CC(O)c3ccc(Br)cc3)c(=O)c2cc1OC (stereo unspecified)", "8%"],
  ["COc1cc2ncn(Cc3cccnc3Br)c(=O)c2cc1OC", "13%"],
  ["O=c1c2cc3c(cc2ncn1Cc1ccc(-c2ccccc2)cc1)OCO3", "6%"],
  ["O=c1c2cc3c(cc2ncn1Cc1ccc(Br)cc1)OCCO3", "1%"],
  ["O=c1c2cc3c(cc2ncn1Cc1cccc(-c2ccccc2)c1)OCO3", "8%"]
]}
